- Assay System: Mesothelin (SwissProt reference Q13421-3) (Homo sapiens, UniProt Q13421 37-622)
- Experimental Details: cell-based or functional assay
In this section we review reported IC50 (nM), HT29 meso+ cells, MTT proliferation assay values for a set of binders.
Endpoint: IC50 (nM), HT29 meso+ cells, MTT proliferation assay

[[record]]
binder = "Example 85, conjugate of anti-mesothelin antibody MF-Ta (antibody, human IgG1, lambda, V domains shown, toxophore-linker on Cys sulfur, sites not given) VH: QVELVQSGAEVKKPGESLKISCKGSGYSFTSYWIGWVRQAPGKGLEWMGIIDPGDSRTRYSPSFQGQVTISADKSISTAYLQWSSLKASDTAMYYCARGQLYGGTYMDGWGQGTLVTVSS VL: DIALTQPASVSGSPGQSITISCTGTSSDIGGYNSVSWYQQHPGKAPKLMIYGVNNRPSGVSNRFSGSKSGNTASLTISGLQAEDEADYYCSSYDIESATPVFGGGTKLTVLG"
result = "0.2 nM"

[[record]]
binder = "Example 68, conjugate of anti-mesothelin antibody MF-Ta (antibody, human IgG1, lambda, V domains shown, toxophore-linker on Cys sulfur, sites not given) VH: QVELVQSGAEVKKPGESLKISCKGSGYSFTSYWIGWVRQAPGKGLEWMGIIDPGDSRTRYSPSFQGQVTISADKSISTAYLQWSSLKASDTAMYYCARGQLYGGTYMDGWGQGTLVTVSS VL: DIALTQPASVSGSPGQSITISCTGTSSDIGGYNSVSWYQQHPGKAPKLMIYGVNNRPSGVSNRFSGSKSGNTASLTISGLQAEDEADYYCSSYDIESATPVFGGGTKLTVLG"
result = "2 nM"

[[record]]
binder = "Example 105, conjugate of anti-mesothelin antibody MF-Ta (antibody, human IgG1, lambda, V domains shown, toxophore-linker on Lys NH, sites not given) VH: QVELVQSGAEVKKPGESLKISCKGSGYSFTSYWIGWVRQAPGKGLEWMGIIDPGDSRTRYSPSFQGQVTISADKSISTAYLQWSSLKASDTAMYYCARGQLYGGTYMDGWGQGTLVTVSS VL: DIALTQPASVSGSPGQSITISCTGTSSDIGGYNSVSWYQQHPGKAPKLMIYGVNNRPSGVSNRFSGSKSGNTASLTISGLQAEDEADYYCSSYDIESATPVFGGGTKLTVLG"
result = "0.6 nM"

[[record]]
binder = "Example 71, conjugate of anti-mesothelin antibody MF-Ta (antibody, human IgG1, lambda, V domains shown, toxophore-linker on Cys sulfur, sites not given) VH: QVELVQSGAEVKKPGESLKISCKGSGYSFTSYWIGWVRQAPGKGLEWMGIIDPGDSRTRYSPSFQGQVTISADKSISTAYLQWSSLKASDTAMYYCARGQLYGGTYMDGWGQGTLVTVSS VL: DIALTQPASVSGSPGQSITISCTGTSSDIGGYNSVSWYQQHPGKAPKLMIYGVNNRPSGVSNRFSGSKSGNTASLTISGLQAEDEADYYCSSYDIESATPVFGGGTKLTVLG"
result = "0.6 nM"

[[record]]
binder = "Example 88, conjugate of anti-mesothelin antibody MF-Ta (antibody, human IgG1, lambda, V domains shown, toxophore-linker on Cys sulfur, sites not given) VH: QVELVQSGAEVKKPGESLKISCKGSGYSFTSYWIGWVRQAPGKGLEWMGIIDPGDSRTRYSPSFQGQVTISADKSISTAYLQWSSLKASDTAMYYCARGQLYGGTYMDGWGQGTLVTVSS VL: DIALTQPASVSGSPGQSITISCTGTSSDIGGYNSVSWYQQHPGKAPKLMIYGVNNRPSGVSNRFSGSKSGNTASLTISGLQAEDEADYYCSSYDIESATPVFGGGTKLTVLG"
result = "0.01 nM"

